Biological target: T1, human transferrin receptor (recombinant, for surface plasmon resonance) (human, UniProt P02786 89-760)
T1 construct: also called huTfR; human transferrin receptor-biotinylated
T1 sequence (P02786 89-760 limits assumed): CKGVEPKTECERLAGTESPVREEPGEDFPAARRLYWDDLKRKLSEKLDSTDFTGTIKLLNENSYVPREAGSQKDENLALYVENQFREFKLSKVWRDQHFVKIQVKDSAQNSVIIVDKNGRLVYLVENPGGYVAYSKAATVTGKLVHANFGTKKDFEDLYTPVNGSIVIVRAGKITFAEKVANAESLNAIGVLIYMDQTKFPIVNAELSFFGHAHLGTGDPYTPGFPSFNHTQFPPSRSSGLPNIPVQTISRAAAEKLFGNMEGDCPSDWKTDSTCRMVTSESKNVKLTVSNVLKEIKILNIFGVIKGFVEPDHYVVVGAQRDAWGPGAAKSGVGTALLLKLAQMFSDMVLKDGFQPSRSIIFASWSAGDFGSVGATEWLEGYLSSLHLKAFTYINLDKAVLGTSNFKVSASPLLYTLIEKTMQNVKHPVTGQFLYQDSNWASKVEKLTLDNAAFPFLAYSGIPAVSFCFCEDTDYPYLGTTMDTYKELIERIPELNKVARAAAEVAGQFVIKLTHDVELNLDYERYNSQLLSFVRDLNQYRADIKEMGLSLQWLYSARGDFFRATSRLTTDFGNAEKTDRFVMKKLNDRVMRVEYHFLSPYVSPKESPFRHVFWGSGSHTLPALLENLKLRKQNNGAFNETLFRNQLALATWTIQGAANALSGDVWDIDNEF
Assay: SPR 25C
endpoint: koff (s⁻¹)
One number for each entry, in s⁻¹.

{"columns": ["binder", "unit-label", "koff"],
 "data": [
  ["2/99 VH20/VL12 (antibody, V domains shown) VH: QSMQESGPGLVKPSQTLSLTCTVSGFSLSSYAMSWIRQHPGKGLEWIGYIWSGGSTDYAPSLKSRVTISVDTSKNQVSLKLSSVTAADTAVYYCARRYGTSYPDYGDANGFDPWGQGTLVTVSS VL: DIQMTQSPSSLSASVGDRVTITCRASQSISSYLAWYQQKPGKAPKLLIYRASTLASGVPSRFSGSRSGTDFTLTISSLQPEDFATYYCQQHYSSSNVDNTFGGGTKVEIK", "s⁻¹", 0.001],
  ["2/99 VH16/VL7 (antibody, V domains shown) VH: QQLQESGPGLVKPSETLSLTCTVSGFSLSSYAMSWVRQPPGKGLEWIGYIWSGGSTDYNPSLKSRVTISVDTSKNQVSLKLSSVTAADTAVYYCARRYGTSYPDYGDANGFDPWGPGTLVTVSS VL: AIQLTQSPSSLSASVGDRVTITCRASQSISSYLAWYQQKPGKAPKLLIYRASTLASGVPSRFSGSGSGTDFTLTISSLQPEDFATYYCQQSYSSSNVDNTFGGGTKVEIK", "s⁻¹", 0.00525],
  ["2/99 VH21/VL10 (antibody, V domains shown) VH: QSMQESGPGLVKPSQTLSLTCTVSGFSLSSYAMSWIRQHPGKGLEWIGYIWSGGSTDYASWAKSRVTISVDTSKNQVSLKLSSVTAADTAVYYCARRYGTSYPDYGDANGFDPWGQGTLVTVSS VL: DIQMTQSPSSLSASVGDRVTITCRASQSISSYLSWYQQKPGKAPKLLIYRASTLASGVPSRFSGSRSGTDFTLTISSLQPEDFATYYCQQSYSSSNVDNTFGGGTKVEIK", "s⁻¹", 0.00211],
  ["2/99 VH7/VL1 (antibody, V domains shown) VH: QQLVETGGGLIQPGGSLRLSCAASGFSLSSYAMSWVRQAPGKGLEWIGYIWSGGSTDYASWAKGRFTISRDNSKNTLYLQMNSLRAEDTAVYYCARRYGTSYPDYGDANGFDPWGQGTLVTVSS VL: DIQMTQSPSSLSASVGDRVTITCRASQSISSYLNWYQQKPGKAPKLLIYRASSLQSGVPSRFSGSGSGTDFTLTISSLQPEDFATYYCQQSYSSSNVDNTFGGGTKVEIK", "s⁻¹", 0.00752],
  ["2/99 VH5/VL3 (antibody, V domains shown) VH: QSMEETGGGLIQPGGSLRLSCAASGFSLSSYAMSWVRQAPGKGLEWVGYIWSGGSTDYADSVKGRFTISRDNSKNTLYLQMNSLRAEDTAVYYCARRYGTSYPDYGDANGFDPWGPGTLVTVSS VL: AYQMTQSPSSLSASVGDRVTITCRASQSISSYLNWYQQKPGKAPKLLIYRASTLASGVPSRFSGSGSGTDFTLTISSLQPEDFATYYCQQSYSSSNVDNTFGGGTKVEIK", "s⁻¹", 0.00316],
  ["2/99 VH7/VL15 (antibody, V domains shown) VH: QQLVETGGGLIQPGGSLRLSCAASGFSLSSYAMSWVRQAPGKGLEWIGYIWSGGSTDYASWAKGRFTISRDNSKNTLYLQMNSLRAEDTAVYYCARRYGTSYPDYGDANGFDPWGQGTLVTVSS VL: DIVMTQSPDSLAVSLGERATINCKSSQSISSYLIWYQQKPGQPPKLLIYRASTLASGVPDRFSGSGSGTDFTLTISSLQAEDVAVYYCQQAYSSSNVDNTFGGGTKVEIK", "s⁻¹", 0.00273],
  ["2/99 VH11/VL1 (antibody, V domains shown) VH: QQLLESGGGLVQPGGSLRLSCAASGFSLSSYAMSWVRQAPGKGLEWVGYIWSGGSTDYADSVKGRFTISRDNSKNTLYLQMNSLRAEDTAVYYCARRYGTSYPDYGDANGFDPWGQGTLVTVSS VL: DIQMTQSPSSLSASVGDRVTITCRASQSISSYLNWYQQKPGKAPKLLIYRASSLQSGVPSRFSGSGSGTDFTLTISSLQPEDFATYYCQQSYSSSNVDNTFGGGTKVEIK", "s⁻¹", 0.001],
  ["2/99 VH7/VL8 (antibody, V domains shown) VH: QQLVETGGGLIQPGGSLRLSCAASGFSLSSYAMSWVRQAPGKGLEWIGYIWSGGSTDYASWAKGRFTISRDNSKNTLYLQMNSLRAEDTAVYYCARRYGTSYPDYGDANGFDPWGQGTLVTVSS VL: AYQLTQSPSSLSASVGDRVTITCRASQSISSYLSWYQQKPGKAPKLLIYRASTLASGVPSRFSGSGSGTDFTLTISSLQPEDFATYYCQQSYSSSNVDNTFGGGTKVEIK", "s⁻¹", 0.00172]
]}

Fill in koff for each of the 2 binders listed.
1. 2/99 VH21/VL14 (antibody, V domains shown) VH: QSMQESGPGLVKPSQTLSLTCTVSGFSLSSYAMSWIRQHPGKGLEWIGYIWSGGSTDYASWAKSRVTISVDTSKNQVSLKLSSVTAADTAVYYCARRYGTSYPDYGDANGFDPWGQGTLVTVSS VL: DIVMTQSPDSLAVSLGERATINCKSSQSISSYLSWYQQKPGQRPKLLIYRASTLASGVPDRFSGSGSGTDFTLTISSLQAEDVAVYYCQQSYSSSNVDNTFGGGTKVEIK
2. 2/99 VH13/VL8 (antibody, V domains shown) VH: QVQLQESGPGLVKPSETLSLTCTVSGFSLSSYAMSWIRQPPGKGLEWIGYIWSGGSTDYNPSLKSRVTISVDTSKNQVSLKLSSVTAADTAVYYCARRYGTSYPDYGDANGFDPWGQGTLVTVSS VL: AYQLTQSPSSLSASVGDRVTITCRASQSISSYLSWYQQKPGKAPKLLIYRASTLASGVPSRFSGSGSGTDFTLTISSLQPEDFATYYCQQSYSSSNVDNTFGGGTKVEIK

Output:
0.00103
0.00247
